- Tested on: Aspergillus fumigatus (ATCC 1022)
So basically: is MIC under 60 µg/mL? Then satisfied. Not under? Then not satisfied.

Answered examples (3):
1. CC(=O)N1CCN(c2ccc(OCC3COC(Cn4ccnc4)(c4ccc(Cl)cc4Cl)O3)cc2)CC1 (stereo not shown) [Ketoconazole, reference compound]: not satisfied
2. COC(=O)c1[nH]c2ccc(F)cc2c1/C=C1\SC(=S)N(N2CCOCC2)C1=O: satisfied
3. c1ccc(-c2ccc(C(c3ccccc3)n3ccnc3)cc2)cc1 (stereo not shown) [Bifonazole, reference compound]: not satisfied

Strictly below 60 µg/mL in MIC? `COC(=O)c1[nH]c2ccccc2c1/C=C1\SC(=S)N(c2ccc(C(=O)O)cc2)C1=O` satisfied

Further, for `COC(=O)c1[nH]c2ccccc2c1/C=C1\SC(=S)N(c2cccc(O)c2)C1=O` ? satisfied

Further, for `COC(=O)c1[nH]c2ccc(F)cc2c1/C=C1\SC(=S)N(C)C1=O` ? satisfied

Further, for `COC(=O)c1[nH]c2ccc(F)cc2c1/C=C1\SC(=S)N(CCCC(=O)O)C1=O` ? not satisfied

###

- Tested on: Salmonella typhimurium (ATCC 13311)
- experimental.protocol: Antibacterial microdilution (MIC/MBC)
- Type: cell-based
- assay.context: Salmonella enterica; S.t. (S. typhimurium); read-out: MIC
Below is a list of entries, each paired with its recorded MIC value.
Quick note: give the figure in µg/mL, leave out the unit.

// known answers, use as guide
1) COC(=O)c1[nH]c2ccc(F)cc2c1/C=C1\SC(=S)N(CCC(=O)O)C1=O [Compound 14]: 45
2) COC(=O)c1[nH]c2ccc(F)cc2c1/C=C1\SC(=S)N(N2CCOCC2)C1=O [Compound 16]: 45

Param item = COC(=O)c1[nH]c2ccccc2c1/C=C1\SC(=S)N(CCC(=O)O)C1=O [Compound 17] ; retrieve measured MIC. 30

###

Below is a list of entries, each paired with its recorded MIC value.
- System: Aspergillus versicolor (ATCC 11730)
- experimental.protocol: Antifungal bioassay (MIC/MFC)
- Assay type: cell-based
- assay.context: ATCC11730, A.v. (A. versicolor)
- Experimental: For the antifungal bioassays, six fungi were used: […] The organisms were obtained from the Mycological Laboratory, Department of Plant Physiology, Institute for Biological Research “Siniša Stankovic”, Belgrade, Serbia. All experiments were performed in duplicate.
Quick note: give the figure in µg/mL, leave out the unit.

1) COC(=O)c1[nH]c2ccccc2c1/C=C1\SC(=S)N(CCCCCC(=O)O)C1=O [Compound 1]: 30

Param item = COC(=O)c1[nH]c2ccccc2c1/C=C1\SC(=S)N(N2CCOCC2)C1=O [Compound 6] ; retrieve measured MIC. 8

Further, for COC(=O)c1[nH]c2ccccc2c1/C=C1\SC(=S)N(CC(=O)O)C1=O [Compound 11] ? 15

Further, for COC(=O)c1[nH]c2ccccc2c1/C=C1\SC(=S)N(Cc2ccco2)C1=O [Compound 7] ? 8

###

Below is a list of entries, each paired with its recorded MIC value.
- System: Staphylococcus aureus (ATCC 6538)
- experimental.protocol: Antibacterial microdilution (MIC/MBC)
- Type: cell-based
- assay.context: Staphylococcus aureus, ATCC6538; S.a. (S. aureus); read-out: MIC
Please answer using the number first and the unit second.

// known answers, use as guide
1) COC(=O)c1[nH]c2ccccc2c1/C=C1\SC(=S)N(Cc2ccco2)C1=O: 15 µg/mL
2) COC(=O)c1[nH]c2ccccc2c1/C=C1\SC(=S)N(c2cccc(O)c2)C1=O: 15 µg/mL
3) COC(=O)c1[nH]c2ccccc2c1/C=C1\SC(=S)N(CC(=O)O)C1=O: 8 µg/mL
4) COC(=O)c1[nH]c2ccc(F)cc2c1/C=C1\SC(=S)N(N2CCOCC2)C1=O: 22 µg/mL
5) COC(=O)c1[nH]c2ccc(F)cc2c1/C=C1\SC(=S)N(c2ccc(O)cc2)C1=O: 30 µg/mL

Param item = COC(=O)c1[nH]c2ccc(F)cc2c1/C=C1\SC(=S)N(C(C(=O)O)C(C)C)C1=O (centres unmarked) ; retrieve measured MIC. 30 µg/mL

Further, for `COC(=O)c1[nH]c2cc(OC)ccc2c1/C=C1\SC(=S)N(c2cccc(F)c2)C1=O` ? 15 µg/mL

Further, for COC(=O)c1[nH]c2ccccc2c1/C=C1\SC(=S)N(C(C(=O)O)C(C)C)C1=O (centres unmarked) ? 30 µg/mL

Further, for `COC(=O)c1[nH]c2ccccc2c1/C=C1\SC(=S)N(CCC(=O)O)C1=O` ? 8 µg/mL

Further, for `COC(=O)c1[nH]c2ccccc2c1/C=C1\SC(=S)N(c2ccc(O)cc2)C1=O` ? 30 µg/mL

Further, for `COC(=O)c1[nH]c2ccc(F)cc2c1/C=C1\SC(=S)N(CCC(=O)O)C1=O` ? 30 µg/mL

Further, for `COC(=O)c1[nH]c2ccc(F)cc2c1/C=C1\SC(=S)N(CCCC(=O)O)C1=O` ? 30 µg/mL

Further, for CC1(C)S[C@@H]2[C@H](NC(=O)[C@H](N)c3ccccc3)C(=O)N2[C@H]1C(=O)O [Ampicillin, reference compound] ? 100 µg/mL

Further, for `COC(=O)c1[nH]c2ccccc2c1/C=C1\SC(=S)N(c2ccc(C(=O)O)cc2)C1=O` ? 15 µg/mL

Hey, just so you know, these numbers are from paper PMC9865890.
